Molecular target: AURKA (Homo sapiens, UniProt O14965)
Construct: endogenous in cells; host or cells: Jurkat cells
Assay type: cell-based
Details: 100 nM compound, Jurkat cells, 24 h, Table 2
Reported Property: Percentage of AURKA Degradation Induced by 100 nM Compound in Jurkat Cells

O=C1CCN(c2ccc(N3CCC4(CC3)CC(NC(=O)C35CC(Nc6ncc7c(n6)-c6ccc(Cl)cc6C(c6c(F)cccc6F)=NC7)(C3)C5)C4)nc2)C(=O)N1    +++ (Degradation > 70%)
O=C1CCN(c2ccc(N3CCC4(CC3)CC(NC(=O)c3ccc(Nc5ncc6c(n5)-c5ccc(Cl)cc5C(c5ccccn5)=NC6)cc3)C4)nc2)C(=O)N1    +++ (Degradation > 70%)

###

Biological target: AURKA (Homo sapiens, UniProt O14965)
Construct: endogenous in cells; host or cells: Jurkat cells
Sequence (O14965 1-403): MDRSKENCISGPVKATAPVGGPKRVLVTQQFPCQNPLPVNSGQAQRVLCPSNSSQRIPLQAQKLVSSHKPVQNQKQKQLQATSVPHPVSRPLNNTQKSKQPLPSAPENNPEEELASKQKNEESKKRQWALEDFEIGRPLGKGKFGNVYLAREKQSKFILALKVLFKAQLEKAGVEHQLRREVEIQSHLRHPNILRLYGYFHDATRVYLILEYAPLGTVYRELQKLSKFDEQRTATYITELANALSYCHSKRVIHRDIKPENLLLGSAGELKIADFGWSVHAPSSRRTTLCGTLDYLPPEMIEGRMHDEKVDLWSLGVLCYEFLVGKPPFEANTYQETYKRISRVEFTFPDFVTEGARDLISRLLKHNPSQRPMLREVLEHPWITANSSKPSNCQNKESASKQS
Format: cell-based
Conditions: 100 nM compound, Jurkat cells, 24 h, Table 2
Reported Property: Percentage of AURKA Degradation Induced by 100 nM Compound in Jurkat Cells

Cc1c(N2CCN(CCC#Cc3cccc(Nc4ncc5c(n4)-c4ccc(Cl)cc4C(c4c(F)cccc4F)=NC5)c3)CC2)cccc1N1CCC(=O)NC1=O    +++ (Degradation > 70%)
O=C1CCN(c2cccc(N3CCC(N4CC(c5cccc(Nc6ncc7c(n6)-c6ccc(Cl)cc6C(c6c(F)cccc6F)=NC7)c5)C4)C3)c2)C(=O)N1 (centres unmarked)    +++ (Degradation > 70%)
O=C1CCN(c2cccc(N3CCN(CCOc4cccc(Nc5ncc6c(n5)-c5ccc(C7CC7)cc5C(c5c(F)cccc5F)=NC6)c4)CC3)c2)C(=O)N1    +++ (Degradation > 70%)

###

Target: AURKA (Homo sapiens, UniProt O14965)
Construct: endogenous in cells; host or cells: Jurkat cells
Assay type: cell-based
Details: 100 nM compound, Jurkat cells, 24 h, Table 2
Reported Property: Percentage of AURKA Degradation Induced by 100 nM Compound in Jurkat Cells

Example entries begin here.
O=C1CCN(c2ccc(N3CC4COCC(C3)N4CC3CCN(c4ccc(Nc5ncc6c(n5)-c5ccc(Cl)cc5C(c5c(F)cccc5F)=NC6)cc4)CC3)nc2)C(=O)N1    +++ (Degradation > 70%)
O=C1CCN(c2ccc(N3CCC(C4CN(C(=O)C56CC(Nc7ncc8c(n7)-c7ccc(Cl)cc7C(c7c(F)cccc7F)=NC8)(C5)C6)C4)CC3)nc2)C(=O)N1    +++ (Degradation > 70%)
O=C1CCN(c2cccc(N3CC(CN4CCN(c5cccc(Nc6ncc7c(n6)-c6ccc(Cl)cc6C(c6c(F)cccc6F)=NC7)c5)CC4)C3)c2)C(=O)N1    +++ (Degradation > 70%)
N#Cc1cc(N2CCN(C(=O)C3CCN(c4ccc(Nc5ncc6c(n5)-c5ccc(Cl)cc5C(c5c(F)cccc5F)=NC6)cc4)CC3)CC2)ccc1N1CCC(=O)NC1=O    +++ (Degradation > 70%)
O=C1CCN(c2ccc(N3CCC4(CC3)CC(N3CCN(C56CC(Nc7ncc8c(n7)-c7ccc(Cl)cc7C(c7nccs7)=NC8)(C5)C6)C(=O)C3)CO4)nc2)C(=O)N1 (centres unmarked)    +++ (Degradation > 70%)

Please fill in: Percentage of AURKA Degradation Induced by 100 nM Compound in Jurkat Cells reported for `O=C1CCN(c2ccc(N3CCC4(CC3)CN(CC3CN(c5ccc(Nc6ncc7c(n6)-c6ccc(Cl)cc6C(c6c(F)cccc6F)=NC7)cc5)C3)CCO4)nc2)C(=O)N1` = +++ (Degradation > 70%)

Documented Percentage of AURKA Degradation Induced by 100 nM Compound in Jurkat Cells of `O=C1CCN(c2ccc(N3CC4COCC(C3)N4C3CCN(c4ccc(Nc5ncc6c(n5)-c5ccc(Cl)cc5C(c5c(F)cccc5F)=NC6)cc4)CC3)nc2)C(=O)N1` : +++ (Degradation > 70%)

Query `O=C1CCN(c2ccc(N3CCN(Cc4cnc(-c5ccc(Nc6ncc7c(n6)-c6ccc(Cl)cc6C(c6c(F)cccc6F)=NC7)cc5)[nH]4)CC3)cc2)C(=O)N1` yields Percentage of AURKA Degradation Induced by 100 nM Compound in Jurkat Cells of +++ (Degradation > 70%)

Noted for `O=C1CCN(c2ccc(N3CCC(C(=O)N4CCN(c5ccc(Nc6ncc7c(n6)-c6ccc(Cl)cc6C(c6nccs6)=NC7)cc5)CC4)CC3)nc2)C(=O)N1` : its Percentage of AURKA Degradation Induced by 100 nM Compound in Jurkat Cells reads +++ (Degradation > 70%)

Data origin, for the record: patent EP4818168A1
